# Measured on: IDH2-R172K (Homo sapiens (Human), UniProt P48735, R172K)
# Sequence (P48735 40-452 R172K): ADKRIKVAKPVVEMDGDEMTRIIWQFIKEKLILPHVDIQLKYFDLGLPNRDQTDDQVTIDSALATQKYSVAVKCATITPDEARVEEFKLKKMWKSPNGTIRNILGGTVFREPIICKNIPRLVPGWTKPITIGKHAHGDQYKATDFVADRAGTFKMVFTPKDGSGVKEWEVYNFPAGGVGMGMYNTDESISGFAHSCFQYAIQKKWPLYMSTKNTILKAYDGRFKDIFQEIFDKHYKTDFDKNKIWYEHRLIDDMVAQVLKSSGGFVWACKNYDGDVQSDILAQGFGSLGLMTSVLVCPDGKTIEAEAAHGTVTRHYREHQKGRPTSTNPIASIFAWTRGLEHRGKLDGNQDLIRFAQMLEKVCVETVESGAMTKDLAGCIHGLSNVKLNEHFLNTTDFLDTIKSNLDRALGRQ
# Assay explanation: Biochemical assay for IDH2 R172K mutant enzyme (conversion of αKG to 2HG, RapidFire MS)
# Reported conditions: IDH2/R172K IC50, 1.2 nM enzyme, 90 minutes, pH 7.0
Examples of molecules with documented IC50 follow.
Please reply with the bare figure in nM and do not write the unit itself.

Some molecules with recorded IC50:
C=CC(=O)N1CCN(C(CC)c2ccc([C@H](C)Nc3ncc4c(n3)N(CC)C(=O)OC4)cc2)CC1 (single isomer, unassigned) [Example 12]    26.3
C=CC(=O)N1CCN([C@@H](CC2CC2)c2ccc([C@H](C)Nc3ncc4c(n3)N(CC)C(=O)OC4)cc2)CC1    11.5
C=CC(=O)N1CCN(C(CC(C)C)c2ccc([C@H](C)Nc3ncc4c(n3)N(CC)C(=O)OC4)cc2)CC1 (single isomer, unassigned) [Example 7]    22.4

Entry C=CC(=O)N1CCN(C(CCOC)c2ccc([C@H](C)Nc3ncc4c(n3)N(CC)C(=O)OC4)cc2)CC1 (single isomer, unassigned) [Example 13] under IDH2-R172K (Homo sapiens (Human), UniProt P48735, R172K) had IC50 of 39

###

# Measured on: IDH2-R140Q (Homo sapiens (Human), UniProt P48735, R140Q)
# Sequence (P48735 40-452 R140Q): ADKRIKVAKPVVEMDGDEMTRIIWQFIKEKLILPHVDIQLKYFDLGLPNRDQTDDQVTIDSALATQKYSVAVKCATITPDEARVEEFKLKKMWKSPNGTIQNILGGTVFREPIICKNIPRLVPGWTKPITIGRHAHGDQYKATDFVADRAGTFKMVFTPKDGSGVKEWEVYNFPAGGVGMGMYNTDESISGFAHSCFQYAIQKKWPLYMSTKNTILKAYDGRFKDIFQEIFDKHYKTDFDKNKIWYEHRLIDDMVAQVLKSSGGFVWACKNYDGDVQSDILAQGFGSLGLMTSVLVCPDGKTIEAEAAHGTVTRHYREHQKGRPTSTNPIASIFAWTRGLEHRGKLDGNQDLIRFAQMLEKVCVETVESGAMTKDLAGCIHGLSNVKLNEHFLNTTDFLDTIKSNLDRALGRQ
# Assay explanation: Biochemical assay for IDH2 R140Q mutant enzyme (conversion of αKG to 2HG, RapidFire MS)
# Reported conditions: IDH2/R140Q IC50, 1.2 nM enzyme, 90 minutes, pH 7.0
Measured metric: pIC50
Note: pIC50 values are expressed as the negative base-10 logarithm of concentration in M.

Some compounds with recorded pIC50:
C=CC(=O)N1CCN(C(CC2CC2)c2ccc([C@H](C)Nc3ncc4c(n3)N(C)C(=O)OC4)cc2)CC1 (single isomer, unassigned) [Example 4]    7.09
C=CC(=O)N1CCN(C(CC)c2ccc([C@H](C)Nc3ncc4c(n3)N(CC)C(=O)OC4)cc2)CC1 (single isomer, unassigned) [Example 11]    7.27
C=CC(=O)N1CCN(C(CC(C)C)c2ccc([C@H](C)Nc3ncc4c(n3)N(CC)C(=O)OC4)cc2)CC1 (single isomer, unassigned) [Example 7]    7.13

From here, focus on the item given below.
Entry C=CC(=O)N1CCN(C(CCOC)c2ccc([C@H](C)Nc3ncc4c(n3)N(CC)C(=O)OC4)cc2)CC1 (single isomer, unassigned) [Example 13] under IDH2-R140Q (Homo sapiens (Human), UniProt P48735, R140Q) had pIC50 of 6.62

###

Heads up, these molecules all have pIC50 values measured for UniProt O75874.
Sequence (O75874 whole entry): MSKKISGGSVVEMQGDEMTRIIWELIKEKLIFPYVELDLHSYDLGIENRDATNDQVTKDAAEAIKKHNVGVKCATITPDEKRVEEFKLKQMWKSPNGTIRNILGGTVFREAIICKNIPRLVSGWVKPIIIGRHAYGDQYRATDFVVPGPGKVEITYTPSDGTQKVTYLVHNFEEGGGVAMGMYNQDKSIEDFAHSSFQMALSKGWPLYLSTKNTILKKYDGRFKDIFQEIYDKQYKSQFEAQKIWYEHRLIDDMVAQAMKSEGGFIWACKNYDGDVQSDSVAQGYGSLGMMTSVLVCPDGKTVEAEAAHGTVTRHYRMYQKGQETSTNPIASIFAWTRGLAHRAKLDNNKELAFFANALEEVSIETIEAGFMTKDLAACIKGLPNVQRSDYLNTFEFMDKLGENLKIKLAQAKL
Note: pIC50 values are expressed as the negative base-10 logarithm of concentration in M.

C=CC(=O)N1CCN([C@H](CC2CC2)c2ccc([C@H](C)Nc3ncc4c(n3)N(CC)C(=O)OC4)cc2)CC1 [Example 1]    7.07

Field pIC50 (entry C=CC(=O)N1CCN([C@@H](CC2CC2)c2ccc([C@H](C)Nc3ncc4c(n3)N(CC)C(=O)OC4)cc2)CC1 [Example 2] ) reads 6.98

Field pIC50 (entry C=CC(=O)N1CCN(C(CCOC)c2ccc([C@H](C)Nc3ncc4c(n3)N(CC)C(=O)OC4)cc2)CC1 (single isomer, unassigned) [Example 14] ) reads 6.41
